target: Melanocortin receptor 4 (Homo sapiens); assay: Percentage of cAMP accumulation of compound relative to alpha-MSH, at human MC4R; format: functional
Sequence (P32245 whole entry): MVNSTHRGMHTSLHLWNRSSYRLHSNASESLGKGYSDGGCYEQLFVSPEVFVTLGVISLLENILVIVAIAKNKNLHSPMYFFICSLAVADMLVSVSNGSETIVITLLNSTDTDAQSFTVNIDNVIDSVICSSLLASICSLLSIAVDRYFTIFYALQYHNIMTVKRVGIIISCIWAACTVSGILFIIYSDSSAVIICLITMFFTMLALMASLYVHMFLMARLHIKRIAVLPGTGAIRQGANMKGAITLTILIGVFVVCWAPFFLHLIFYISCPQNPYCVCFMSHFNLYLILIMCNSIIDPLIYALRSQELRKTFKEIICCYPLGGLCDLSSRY
measured_endpoint: Max (%)

Examples from the recorded data:
O=C(N[C@H](Cc1ccc(Cl)cc1)C(=O)N1CCC(Cn2cncn2)(C2CCCCC2)CC1)[C@H]1CCc2ccccc2N1	97
COc1ccc(-n2nc(Sc3ccc(Cl)cc3)cc(CCC(C)NC(=O)[C@H]3CNCC[C@@H]3c3ccccc3)c2=O)cc1 (stereo partly specified)	82
COc1ccc(-n2nc(Sc3ccc(Cl)cc3)cc(C(C)CCNC(=O)[C@H]3CNCC[C@@H]3c3ccccc3)c2=O)cc1 (stereo partly specified)	31
COc1ccc(-n2nc(Sc3ccc(Cl)cc3)cc(CCC(C)NC(=O)[C@H]3CCNC[C@@H]3c3ccccc3)c2=O)cc1 (stereo partly specified)	79
COc1ccc(-n2nc(Sc3ccc(Cl)cc3)cc(CCCNC(=O)[C@H]3CNC[C@@H]3c3ccccc3)c2=O)cc1	22
COc1ccc(-n2nc(Sc3ccc(Cl)cc3)cc(CC[C@H](C)NC(=O)[C@H]3CNC[C@@H]3c3ccccc3)c2=O)cc1	67

(A) COc1ccc(-n2nc(Sc3ccc(Cl)cc3)cc(CCC(=O)N[C@@H]3CCc4ccccc4NC3=O)c2=O)cc1
(B) COc1ccc(-n2nc(Sc3ccc(Cl)cc3)cc(CCCNC(=O)[C@H]3CNCC[C@@H]3c3ccccc3)c2=O)cc1
*Q* Lower value of Max belongs to which: A or B ? # reply format: chosen label
*A* B

(A) COc1ccc(-n2nc(Sc3ccc(Cl)cc3)cc(CCCNC(=O)[C@H]3CCNC[C@@H]3c3ccccc3)c2=O)cc1
(B) COc1ccc(-n2nc(Sc3ccc(Cl)cc3)cc(CC[C@@H](C)NC(=O)[C@H]3CNC[C@@H]3c3ccccc3)c2=O)cc1
*Q* Pick the one with the larger Max: A vs B # reply format: chosen label
*A* B
(B: 97%, A: 28%)
